Cited source: the FLAb antibody collection (doi:10.7554/elife.23156)

B1: scFv; the commonest letter at each place (parent)
chain 1: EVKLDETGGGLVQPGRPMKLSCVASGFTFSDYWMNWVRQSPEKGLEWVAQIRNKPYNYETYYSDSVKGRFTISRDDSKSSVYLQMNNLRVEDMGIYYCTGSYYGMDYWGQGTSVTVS
chain 2: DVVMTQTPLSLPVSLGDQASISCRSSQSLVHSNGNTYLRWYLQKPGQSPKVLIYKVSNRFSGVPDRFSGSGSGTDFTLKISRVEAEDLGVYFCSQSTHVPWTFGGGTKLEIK

- Variants of: B1
- Protocol Summary: yeast surface expression (ratio to wild type); higher = more expressed
- Recorded Conditions: format: scFv 4-4-20, heavy + light
Measured Quantity: yeast surface expression

>>> df
             mutation_list         measured_quantity  numeric_value
 0            chain 1 N35C  yeast surface expression          0.708
 1       chain 1 Y32C N35M  yeast surface expression          0.536
 2     chain 1 S101K D106V  yeast surface expression          0.257
 3     chain 1 M105E Y107C  yeast surface expression          0.847
 4       chain 1 F29C N35K  yeast surface expression           1.18
 5       chain 1 F29W S30I  yeast surface expression          0.599
 6       chain 1 T28R Y32G  yeast surface expression          0.959
 7  chain 1 T28F F29W V37K  yeast surface expression          0.532
 8     chain 1 S101D D106N  yeast surface expression          0.813
 9       chain 1 F29V W33N  yeast surface expression          0.722
10     chain 1 G100N D106Y  yeast surface expression          0.146
11     chain 1 Y107W G109K  yeast surface expression          0.336
12            chain 1 T28K  yeast surface expression           1.07
13       chain 1 F29M N35W  yeast surface expression          0.403
14       chain 1 D31L Y32M  yeast surface expression          0.772
15     chain 1 Y107Q W108Q  yeast surface expression          0.385
16       chain 1 T28E D31K  yeast surface expression          0.969
17     chain 1 S101N Y103C  yeast surface expression          0.438
18     chain 1 M105K G109W  yeast surface expression          0.118
19  chain 1 T28K S30K M34Y  yeast surface expression          0.855
